biological target: carboxypeptidase Y (CPD-Y) immobilized to Acti-Disk (Saccharomyces cerevisiae, UniProt P00729); construct: purchased Sigma; assay: Flow digestion of N-CBZ-peptides through CPD-Y Acti Disk, ninhydrin assays; type: biochemical, yeast; conditions: flow rate 2 ml/min; 3.45 seconds; pH 5.75; ~25° C.
Sequence (P00729 112-532): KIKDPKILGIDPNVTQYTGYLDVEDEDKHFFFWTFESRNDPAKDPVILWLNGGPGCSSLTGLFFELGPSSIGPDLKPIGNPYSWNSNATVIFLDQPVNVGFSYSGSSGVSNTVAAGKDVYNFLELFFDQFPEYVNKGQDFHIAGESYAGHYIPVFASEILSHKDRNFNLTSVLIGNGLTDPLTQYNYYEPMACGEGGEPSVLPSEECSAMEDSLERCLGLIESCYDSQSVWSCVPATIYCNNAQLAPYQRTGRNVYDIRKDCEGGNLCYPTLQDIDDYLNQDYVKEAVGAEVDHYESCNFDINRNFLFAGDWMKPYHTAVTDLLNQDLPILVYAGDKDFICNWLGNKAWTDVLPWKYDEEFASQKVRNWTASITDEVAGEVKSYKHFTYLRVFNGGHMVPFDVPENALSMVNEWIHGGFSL
Residues, ends and D or L forms follow the SMILES beside them. *: point of attachment. Cbz = O=C(OCc1ccccc1)*
Endpoint name: K^1 min^-1 (first order reaction constant) (min⁻¹)

>>> endpoint_value("CC(C)C[C@H](NC(=O)[C@H](C)NC(=O)OCc1ccccc1)C(=O)O [N-CBZ-Ala-Leu] (Cbz-Ala-Leu-OH)")
27.52
>>> endpoint_value("O=C(O)CC[C@H](NC(=O)OCc1ccccc1)C(=O)N[C@@H](Cc1ccc(O)cc1)C(=O)O [N-CBZ-Glu-Tyr] (Cbz-Glu-Tyr-OH)")
24.24

(A) C[C@H](NC(=O)OCc1ccccc1)C(=O)N1CCC[C@H]1C(=O)O [N-CBZ-Ala-Pro] (Cbz-Ala-Pro-OH)
(B) O=C(NCC(=O)N1CCC[C@H]1C(=O)O)OCc1ccccc1 [N-CBZ-Gly-Pro] (Cbz-Gly-Pro-OH)
(C) O=C(O)[C@H](Cc1ccccc1)NC(=O)[C@@H]1CCCN1C(=O)OCc1ccccc1 [N-CBZ-Pro-Phe] (Cbz-Pro-Phe-OH)
Query: Rank the 3 compounds: largest K^1 min^-1 (first order reaction constant) first, smallest last. Thanks in advance for listing the labels in the requested order.
Reply: A, C, B
(A: 22.40 min⁻¹, C: 1.480 min⁻¹, B: 0.160 min⁻¹)
